Would you kindly list Maximum Emission Wavelength of Selected Substrate for each of these compounds?
TARGET_OR_SYSTEM: R218K luciferase (Photinus pyralis, UniProt P08659, R218K)
Construct: The full firefly (Photinus pyralis) luciferase gene was PCR amplified from pGL3 (Promega); GST (N, cleaved yes); made in house; host or cells: E. coli JM109
PROTOCOL: Bioluminescence emission scan
Format: biochemical
Report only the number, with the unit nm understood.

Q: Answer with reported Maximum Emission Wavelength of Selected Substrate of CN1CCOc2cc3nc(C4=NC(C(=O)O)CS4)sc3cc21 (stereo not drawn)
Result: 617

Q: Answer with reported Maximum Emission Wavelength of Selected Substrate of CC1=CC(C)(C)Nc2cc3sc(C4=NC(C(=O)O)CS4)nc3cc21 (stereo not drawn)
Result: 635

Q: Answer with reported Maximum Emission Wavelength of Selected Substrate of `O=C(O)[C@H]1CSC(c2nc3cc4c(cc3s2)NCC4)=N1`
Result: 609

Q: Answer with reported Maximum Emission Wavelength of Selected Substrate of CC1=CC(C)(C)N(C)c2cc3sc(C4=NC(C(=O)O)CS4)nc3cc21 (stereo not drawn)
Result: 637

Q: Answer with reported Maximum Emission Wavelength of Selected Substrate of `CCCO`
Result: 609

Q: Answer with reported Maximum Emission Wavelength of Selected Substrate of O=C(O)C1CSC(c2nc3cc4c(cc3s2)NCCC4)=N1 (stereo not drawn)
Result: 620

Q: Answer with reported Maximum Emission Wavelength of Selected Substrate of CN(C)c1ccc2nc(C3=NC(C(=O)O)CS3)sc2c1 (stereo not drawn)
Result: 624

Q: Answer with reported Maximum Emission Wavelength of Selected Substrate of O=C(O)C1CSC(c2nc3cc4c(cc3s2)NCCO4)=N1 (stereo not drawn)
Result: 605

Q: Answer with reported Maximum Emission Wavelength of Selected Substrate of `Nc1ccc2nc(C3=N[C@@H](C(=O)O)CS3)sc2c1`
Result: 599

Q: Answer with reported Maximum Emission Wavelength of Selected Substrate of `CN1CCc2cc3nc(C4=N[C@@H](C(=O)O)CS4)sc3cc21`
Result: 621

Q: Answer with reported Maximum Emission Wavelength of Selected Substrate of CNc1ccc2nc(C3=NC(C(=O)O)CS3)sc2c1 (stereo not drawn)
Result: 610

Q: Answer with reported Maximum Emission Wavelength of Selected Substrate of CN1CCCc2cc3nc(C4=NC(C(=O)O)CS4)sc3cc21 (stereo not drawn)
Result: 632

====

TARGET_OR_SYSTEM: R218K + L342A luciferase (Photinus pyralis, UniProt P08659, L342A/R218K)
Construct: The full firefly (Photinus pyralis) luciferase gene was PCR amplified from pGL3 (Promega); GST (N, cleaved yes); made in house; host or cells: E. coli JM109
Sequence (P08659 whole entry R218K/L342A): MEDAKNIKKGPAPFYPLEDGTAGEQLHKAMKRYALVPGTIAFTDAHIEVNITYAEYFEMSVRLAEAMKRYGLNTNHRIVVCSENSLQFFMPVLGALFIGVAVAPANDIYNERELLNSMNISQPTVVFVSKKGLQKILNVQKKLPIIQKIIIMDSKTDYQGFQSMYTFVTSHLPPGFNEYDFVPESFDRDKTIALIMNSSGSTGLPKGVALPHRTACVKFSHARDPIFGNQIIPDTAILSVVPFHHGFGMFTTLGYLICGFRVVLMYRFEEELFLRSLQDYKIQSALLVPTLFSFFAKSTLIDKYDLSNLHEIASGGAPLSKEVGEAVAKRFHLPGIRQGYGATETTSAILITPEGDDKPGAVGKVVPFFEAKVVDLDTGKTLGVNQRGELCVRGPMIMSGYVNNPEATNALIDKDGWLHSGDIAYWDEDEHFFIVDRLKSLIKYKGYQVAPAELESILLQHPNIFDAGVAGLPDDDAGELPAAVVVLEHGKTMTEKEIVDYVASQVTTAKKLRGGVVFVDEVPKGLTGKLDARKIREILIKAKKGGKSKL
Format: biochemical
MEASURED_PROPERTY: Maximum Emission Wavelength of Selected Substrate
Field note: include the unit after the figure.

Q: Answer with reported Maximum Emission Wavelength of Selected Substrate of CCCO [Propanol]
Result: 609 nm

Q: Answer with reported Maximum Emission Wavelength of Selected Substrate of O=C(O)[C@H]1CSC(c2nc3cc4c(cc3s2)NCC4)=N1 [CycLuc1]
Result: 604 nm

Q: Answer with reported Maximum Emission Wavelength of Selected Substrate of Nc1ccc2nc(C3=N[C@@H](C(=O)O)CS3)sc2c1 [6′-NH2LH2, 6′-aminoluciferin]
Result: 594 nm

Q: Answer with reported Maximum Emission Wavelength of Selected Substrate of O=C(O)C1CSC(c2nc3cc4c(cc3s2)NCCO4)=N1 (stereo not shown) [CycLuc3]
Result: 606 nm

Q: Answer with reported Maximum Emission Wavelength of Selected Substrate of CC1=CC(C)(C)N(C)c2cc3sc(C4=NC(C(=O)O)CS4)nc3cc21 (stereo not shown) [CycLuc6]
Result: 635 nm

Q: Answer with reported Maximum Emission Wavelength of Selected Substrate of CN1CCCc2cc3nc(C4=NC(C(=O)O)CS4)sc3cc21 (stereo not shown) [CycLuc8]
Result: 628 nm

Q: Answer with reported Maximum Emission Wavelength of Selected Substrate of O=C(O)C1CSC(c2nc3cc4c(cc3s2)NCCC4)=N1 (stereo not shown) [CycLuc7]
Result: 616 nm

====

TARGET_OR_SYSTEM: R218K mutant luciferase (Photinus pyralis, UniProt P08659, R218K)
Construct: The full firefly (Photinus pyralis) luciferase gene was PCR amplified from pGL3 (Promega); GST (N, cleaved yes); made in house; host or cells: E. coli JM109
Sequence (P08659 whole entry R218K): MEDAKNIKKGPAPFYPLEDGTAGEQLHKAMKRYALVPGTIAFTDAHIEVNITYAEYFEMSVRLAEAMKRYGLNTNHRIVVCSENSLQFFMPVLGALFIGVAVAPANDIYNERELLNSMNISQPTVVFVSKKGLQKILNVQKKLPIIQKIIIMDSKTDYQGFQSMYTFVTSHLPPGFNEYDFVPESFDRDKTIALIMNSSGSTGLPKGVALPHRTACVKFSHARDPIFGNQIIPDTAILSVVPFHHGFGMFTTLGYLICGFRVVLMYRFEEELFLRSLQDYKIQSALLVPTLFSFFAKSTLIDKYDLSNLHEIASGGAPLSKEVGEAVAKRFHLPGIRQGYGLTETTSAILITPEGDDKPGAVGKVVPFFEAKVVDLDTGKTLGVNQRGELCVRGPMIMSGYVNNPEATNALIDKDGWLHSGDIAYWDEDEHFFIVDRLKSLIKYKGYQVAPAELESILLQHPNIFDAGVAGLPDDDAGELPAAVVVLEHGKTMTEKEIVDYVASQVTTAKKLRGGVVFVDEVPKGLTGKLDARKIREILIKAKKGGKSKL
Assay type: biochemical
CONDITION_PARAMETERS: R218K luciferase, purified protein
MEASURED_PROPERTY: Apparent Vmax

Q: Answer with reported Apparent Vmax of CN1CCc2cc3nc(C4=N[C@@H](C(=O)O)CS4)sc3cc21 [CycLuc2]
Result: 26 ± 0.3 ×10^−5 cps

Q: Answer with reported Apparent Vmax of O=C(O)[C@H]1CSC(c2nc3cc4c(cc3s2)NCC4)=N1 [CycLuc1]
Result: 134 ± 1.9 ×10^−5 cps

Q: Answer with reported Apparent Vmax of Nc1ccc2nc(C3=N[C@@H](C(=O)O)CS3)sc2c1 [6′-NH2LH2, 6′-aminoluciferin]
Result: 157 ± 3.7 ×10^−5 cps

Q: Answer with reported Apparent Vmax of O=C(O)[C@H]1CSC(c2nc3ccc(O)cc3s2)=N1 [D-Luciferin, D-luciferin]
Result: 1541 ± 21 ×10^−5 cps

Q: Answer with reported Apparent Vmax of CN(C)c1ccc2nc(C3=NC(C(=O)O)CS3)sc2c1 (stereo not drawn) [6′-Me2NLH2]
Result: 5 ± 0.1 ×10^−5 cps

Q: Answer with reported Apparent Vmax of CNc1ccc2nc(C3=NC(C(=O)O)CS3)sc2c1 (stereo not drawn) [6′-MeNHLH2, Monomethylaminoluciferin]
Result: 38 ± 0.5 ×10^−5 cps

====

TARGET_OR_SYSTEM: L342A luciferase (Photinus pyralis, UniProt P08659, L342A)
Construct: The full firefly (Photinus pyralis) luciferase gene was PCR amplified from pGL3 (Promega); GST (N, cleaved yes); made in house; host or cells: E. coli JM109
PROTOCOL: Bioluminescence emission scan
Assay type: biochemical
Would you kindly list Maximum Emission Wavelength of Selected Substrate for each of these compounds?
Report only the number, with the unit nm understood.

Q: Answer with reported Maximum Emission Wavelength of Selected Substrate of `O=C(O)[C@H]1CSC(c2nc3cc4c(cc3s2)NCC4)=N1`
Result: 597

Q: Answer with reported Maximum Emission Wavelength of Selected Substrate of CNc1ccc2nc(C3=NC(C(=O)O)CS3)sc2c1 (stereo not shown)
Result: 611

Q: Answer with reported Maximum Emission Wavelength of Selected Substrate of CC1=CC(C)(C)N(C)c2cc3sc(C4=NC(C(=O)O)CS4)nc3cc21 (stereo not shown)
Result: 639

Q: Answer with reported Maximum Emission Wavelength of Selected Substrate of `CN1CCc2cc3nc(C4=N[C@@H](C(=O)O)CS4)sc3cc21`
Result: 611

Q: Answer with reported Maximum Emission Wavelength of Selected Substrate of CN1CCOc2cc3nc(C4=NC(C(=O)O)CS4)sc3cc21 (stereo not shown)
Result: 608

Q: Answer with reported Maximum Emission Wavelength of Selected Substrate of CC1=CC(C)(C)Nc2cc3sc(C4=NC(C(=O)O)CS4)nc3cc21 (stereo not shown)
Result: 631

Q: Answer with reported Maximum Emission Wavelength of Selected Substrate of CN(C)c1ccc2nc(C3=NC(C(=O)O)CS3)sc2c1 (stereo not shown)
Result: 619

Q: Answer with reported Maximum Emission Wavelength of Selected Substrate of CN1CCCc2cc3nc(C4=NC(C(=O)O)CS4)sc3cc21 (stereo not shown)
Result: 614

Q: Answer with reported Maximum Emission Wavelength of Selected Substrate of `CCCO`
Result: 607

Q: Answer with reported Maximum Emission Wavelength of Selected Substrate of `Nc1ccc2nc(C3=N[C@@H](C(=O)O)CS3)sc2c1`
Result: 591

====

TARGET_OR_SYSTEM: L286M + S347A luciferase (Photinus pyralis, UniProt P08659, L286M/S347A)
Construct: The full firefly (Photinus pyralis) luciferase gene was PCR amplified from pGL3 (Promega); GST (N, cleaved yes); made in house; host or cells: E. coli JM109
Sequence (P08659 whole entry L286M/S347A): as the sequence (P08659 whole entry R218K/L342A) above, with K218R, L286M, A342L, S347A counted along it
PROTOCOL: Bioluminescence emission scan
Assay type: biochemical
Description: Purified mutant luciferases were used in bioluminescence emission and burst kinetics scans. Luciferase was rapidly injected into a cuvette containing substrate, and the emission from 400-800 nm was recorded in a SPEX FluoroMax-3 fluorimeter with closed excitation slits.
Would you kindly list Maximum Emission Wavelength of Selected Substrate for each of these compounds?

Q: Answer with reported Maximum Emission Wavelength of Selected Substrate of O=C(O)C1CSC(c2nc3cc4c(cc3s2)NCCC4)=N1 (stereo not shown)
Result: 604 nm

Q: Answer with reported Maximum Emission Wavelength of Selected Substrate of CN(C)c1ccc2nc(C3=NC(C(=O)O)CS3)sc2c1 (stereo not shown)
Result: 608 nm

Q: Answer with reported Maximum Emission Wavelength of Selected Substrate of `CN1CCc2cc3nc(C4=N[C@@H](C(=O)O)CS4)sc3cc21`
Result: 608 nm

Q: Answer with reported Maximum Emission Wavelength of Selected Substrate of CNc1ccc2nc(C3=NC(C(=O)O)CS3)sc2c1 (stereo not shown)
Result: 599 nm

Q: Answer with reported Maximum Emission Wavelength of Selected Substrate of CC1=CC(C)(C)N(C)c2cc3sc(C4=NC(C(=O)O)CS4)nc3cc21 (stereo not shown)
Result: 628 nm

Q: Answer with reported Maximum Emission Wavelength of Selected Substrate of CC1=CC(C)(C)Nc2cc3sc(C4=NC(C(=O)O)CS4)nc3cc21 (stereo not shown)
Result: 631 nm

Q: Answer with reported Maximum Emission Wavelength of Selected Substrate of `Nc1ccc2nc(C3=N[C@@H](C(=O)O)CS3)sc2c1`
Result: 589 nm
